molecular target: GST-DVL1 PDZ domain fusion protein (human dishevelled segment polarity protein homolog AA248-340); PDZ domain … (human, UniProt P08515 1-218 = GST); experiment: A/G assays
Sequence (P08515 1-218, tags or fused parts left off): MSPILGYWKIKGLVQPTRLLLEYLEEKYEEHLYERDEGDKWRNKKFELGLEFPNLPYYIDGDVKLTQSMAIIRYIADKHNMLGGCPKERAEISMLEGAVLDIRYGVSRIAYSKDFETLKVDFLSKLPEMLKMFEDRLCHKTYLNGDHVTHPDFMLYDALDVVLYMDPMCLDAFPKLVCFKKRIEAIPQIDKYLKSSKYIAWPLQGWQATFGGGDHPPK
Ends that are not written are not given here. * marks the point of attachment. Biotin = O=C1N[C@H]2[C@H](CS[C@H]2CCCCC(=O)*)N1
propertyMeasured: binding result

Guide cases for binding result, answers given:
{"binder": "Biotin-TIYENLAPVTTFGKTIA [CD148 C-terminal PL peptide AA55L (ends KTIA), biotinylated]", "observedValue": "no binding"}
{"binder": "Biotin-DLGNMEENKKLEENNHKTEA [CD166 (CD6L) C-terminal PL peptide AA20L, biotinylated]", "observedValue": "no binding"}
{"binder": "Biotin-SPQPDSTDNDDYDDISAA [CD6 C-terminal PL peptide AA6L, biotinylated]", "observedValue": "no binding"}
{"binder": "Biotin-PYGTAMEKAQLKPPATSDA [CD49E (alpha-4) C-terminal PL peptide AA11L, biotinylated]", "observedValue": "no binding"}
{"binder": "Biotin-PKQANGGAYQKPTKQEEFYA [CD138 (syndecan) C-terminal PL peptide AA18L, biotinylated]", "observedValue": "no binding"}
{"binder": "Biotin-TSGTGHNQTRALRASESGI [CD97 (CD55L) C-terminal PL peptide AA14L, biotinylated]", "observedValue": "no binding"}

Q: If you can, please state the reported binding result value of Biotin-QGDPALQDAGDSSRKEYFI (also called GC) [Glycophorin C C-terminal PL peptide AA37L, biotinylated] .
Result: no binding

Each recorded value in this set is attributed to patent US20090149339A1.
